As an illustration, consider measured Ki for molecules on GHS-R (Homo sapiens).

Worked cases, answers included:
Query: GHS-R (Homo sapiens) / Ki / CCN(CC)CCCS(=O)(=O)N(C)[C@H](COCc1ccccc1)C(=O)N1CCC2(CC1)CN(S(C)(=O)=O)c1ccccc12 [Compound 160] : value?
Reply: < 100 nM

Query: GHS-R (Homo sapiens) / Ki / CCN(CC)CCS(=O)(=O)N[C@H](CCc1ccccc1)C(=O)c1ccc(-c2ccccc2CN)cc1 [Compound 203] : value?
Reply: 100 to 1000 nM

Further cases:
Query: GHS-R (Homo sapiens) / Ki / CN1CCC(S(=O)(=O)N[C@H](COCc2ccccc2)C(=O)N2CCC3(C=Cc4ccccc43)CC2)CC1 [Compound 147] : value?
Reply: 100 to 1000 nM

====

As an illustration, consider measured Ki for compounds on GHS-R (Homo sapiens, UniProt Q92847).
Sequence (Q92847 whole entry, species assumed): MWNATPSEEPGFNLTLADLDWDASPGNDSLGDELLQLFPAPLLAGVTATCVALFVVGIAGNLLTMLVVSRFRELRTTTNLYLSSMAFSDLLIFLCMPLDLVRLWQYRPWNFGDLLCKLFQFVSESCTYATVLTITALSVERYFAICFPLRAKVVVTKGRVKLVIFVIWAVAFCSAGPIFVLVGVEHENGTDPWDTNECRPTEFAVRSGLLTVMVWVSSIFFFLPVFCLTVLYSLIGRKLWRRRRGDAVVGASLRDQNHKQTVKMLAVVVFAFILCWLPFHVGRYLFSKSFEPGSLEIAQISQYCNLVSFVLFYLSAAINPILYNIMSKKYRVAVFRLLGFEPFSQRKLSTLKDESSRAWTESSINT

Query: GHS-R (Homo sapiens, UniProt Q92847) / Ki / CCN(CC)CCCS(=O)(=O)N[C@H](CCc1ccccc1)C(=O)NCc1ccc(-c2ccccc2C(N)=O)cc1 [Compound 189] : value?
Reply: < 100 nM

Query: GHS-R (Homo sapiens, UniProt Q92847) / Ki / CN([C@H](COCc1ccccc1)C(=O)N1CCC2(CC1)CN(S(C)(=O)=O)c1ccccc12)S(=O)(=O)CCCCl [Compound 157] : value?
Reply: 100 to 1000 nM

Further cases:
Query: GHS-R (Homo sapiens, UniProt Q92847) / Ki / CS(=O)(=O)N1CC2(CCN(C(=O)[C@@H](COCc3ccccc3)NS(=O)(=O)CCN3C4CCCC3CC4)CC2)c2ccccc21 [Compound 144] : value?
Reply: 100 to 1000 nM

Query: GHS-R (Homo sapiens, UniProt Q92847) / Ki / CCN(CC)CCCS(=O)(=O)N[C@H](COCc1ccccc1)C(=O)NCc1ccc(-c2ccccc2-c2noc(=O)[nH]2)cc1 [Compound 164] : value?
Reply: 100 to 1000 nM

Query: GHS-R (Homo sapiens, UniProt Q92847) / Ki / CCN(CC)CCCS(=O)(=O)N[C@H](CCc1ccccc1)C(=O)NCc1ccc(-c2ccccc2NC(=O)NC)cc1 [Compound 200] : value?
Reply: 100 to 1000 nM

Query: GHS-R (Homo sapiens, UniProt Q92847) / Ki / CCN(CC)CCS(=O)(=O)N[C@H](CCc1ccccc1)C(=O)c1ccc(-c2ccccc2CNC(C)=O)cc1 [Compound 204] : value?
Reply: < 100 nM

Query: GHS-R (Homo sapiens, UniProt Q92847) / Ki / CCN(CC)CCCS(=O)(=O)N[C@H](CCc1ccccc1)C(=O)c1ccc(-c2ccccc2CCNC(=O)NC)cc1 [Compound 185] : value?
Reply: < 100 nM

Query: GHS-R (Homo sapiens, UniProt Q92847) / Ki / CCN(CC)CCCS(=O)(=O)N[C@H](COCc1ccccc1)C(=O)NCc1ccc(-c2ccccc2CNC(C)=O)cc1 [Compound 216] : value?
Reply: > 1000 nM

Query: GHS-R (Homo sapiens, UniProt Q92847) / Ki / CCN(CC)CCCS(=O)(=O)N[C@H](CCc1ccccc1)C(=O)c1ccc(-c2ccccc2CO)cc1 [Compound 168] : value?
Reply: < 100 nM
